These data points were gathered from PubChem BioAssay AID602215.

# Test system: HL-1 cardiomyocytes, H2O2 injury, ATP luminescence, 2 h
# Protocol: H2O2-induced HL-1 cell death suppression – ATP luminescence, dose response (AID 602215);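 also: potency is for protection so actives raise ATP signal against peroxide damage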
Active and inactive are the calls of the source.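 The calls were made as follows: active = IC50 of 20 µM or lower; inactive = the rest.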
Labels: 1 = active, -1 = inactive

>>> print(df.to_string())
                                    compound  assigned_class
 0  CCN1C(=O)/C(=C/c2nc3ccccc3c(=O)[nH]2)c2ccccc21               1
 1  Cc1ccc(C(C(=O)NCc2ccccc2)N(Cc2ccco2)C(=O)c2snc(C(N)=O)c2N)o1 (stereo unspecified)              -1
 2  Cc1nc(N2CCN(c3ccccn3)CC2)c2c(C)c(C(=O)Nc3ccc(F)cc3)sc2n1              -1
 3  COc1ccccc1NC(=O)c1cc(-c2ccc(OC)c(OC)c2)nc2ccccc12              -1
 4  O=CNc1cc(-c2ccc(C(=O)NC3CC3)cc2)cn2c(-c3ccccc3)cnc12              -1
 5  COc1cccc(-c2cnc3c(NC=O)cc(-c4cccc(NC(C)=O)c4)cn23)c1              -1
 6      CC(C)=NNc1cnnc2ccc([N+](=O)[O-])cc12              -1
 7    COc1ccccc1OP(=O)(Nc1cccnc1)Oc1ccccc1OC              -1
 8  O=C(Nc1ccccc1)c1nc[nH]c1C(=O)NCCCCCCNC(=O)c1[nH]cnc1C(=O)Nc1ccccc1               1
 9      CC(=O)c1cccc(Nc2nc3ccccc3n3cnnc23)c1              -1
10  COc1ccc(-n2cc(-c3ccccc3)c3c(N4CCOCC4)ncnc32)cc1              -1
11  CC1Nc2ncnc(N3CCN(c4ccccc4)CC3)c2N(Cc2ccc(Cl)cc2)C1=O (stereo unspecified)              -1
12  O=C(CN(c1ccc2c(c1)OCCO2)S(=O)(=O)c1ccccc1)Nc1ccc2c(c1)OCO2              -1
13  COc1cc(-c2cnc3c(NC=O)cc(-c4cccnc4)cn23)cc(OC)c1OC               1
14  CCOC(=O)c1c2c3c(cccc3n(C)c1=O)C(=O)c1ccccc1-2              -1
15  Cn1c(=O)c2[nH]c(NN=Cc3cccc(Br)c3)nc2n(C)c1=O              -1
16  O=S(=O)(c1ccccc1)N1CCN(c2nc(-c3cccnc3)nc3ccccc23)CC1              -1
17  COc1ccc(-c2cc(NC=O)c3ncc(-c4ccc(C(C)=O)cc4)n3c2)cn1              -1
18  O=C(CNC(=O)c1nc[nH]c1C(=O)NCC(=O)OCc1ccccc1)OCc1ccccc1              -1
19  COc1ccc(-n2c(/C=C/c3ccc(O)c(OC)c3)nc3ccccc3c2=O)cc1               1
20  COc1cc(C(=O)N/N=C/c2sc(N3CCOCC3)nc2-c2ccccc2)cc(OC)c1OC              -1

###

# Tested on: HL-1 cardiomyocytes, H2O2 injury, ATP luminescence, 2 h
# Protocol: H2O2-induced HL-1 cell death suppression – ATP luminescence, dose response (AID 602215);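 also: potency is for protection so actives raise ATP signal against peroxide damage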
The source made the active and inactive calls.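 The calls were made as follows: active = IC50 of 20 µM or lower; inactive = the rest.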
Labels: active, inactive

In [3]: df
Out[3]:
                                    compound  assigned_class
 0  Cc1cccc(NC(=O)c2nc[nH]c2C(=O)NCCCCNC(=O)c2[nH]cnc2C(=O)Nc2cccc(C)c2)c1        inactive
 1  COc1ccc(C(=O)Nc2cccc(NC(=O)c3ccc(OC)c(OC)c3)n2)cc1OC        inactive
 2  CCOC(=O)C1CCN(c2cc3c(cc2NC(=O)c2ccc(OC)c(OC)c2)n(C)c(=O)n3C)CC1        inactive
 3  COc1ccccc1CN(C(=O)CNC(=O)c1ccco1)C(C(=O)NCC1CCCO1)c1ccccc1 (configuration not stated)        inactive
 4  COc1ccc(C(C(=O)NC2CCCC2)N(C(=O)c2snc(C(N)=O)c2N)c2cccc(O)c2)cc1 (configuration not stated)        inactive
 5  COc1cc(C(=O)N/N=C/c2ccc(OC(=O)c3ccccc3)c(OC)c2)ccc1O        inactive
 6  C=CC[C@@H](CC(=O)NCCO)C(=O)NC[C@H](OC(=O)[C@@H](CC=C)Cc1ccc(F)cc1)c1ccccc1        inactive
 7  COC(=O)c1cc2ccccn2c2c(C(=O)OC)c(C(=O)OC)cc1-2        inactive
 8  CS(=O)(=O)c1ccc(-c2cnc3c(NC=O)cc(-c4ccsc4)cn23)cc1          active
 9  CC(C)(C)OC(=O)CNC(=O)c1[nH]cnc1C(=O)NCC(=O)OCc1ccccc1        inactive
10  COc1cccc(/C=N/NC(=O)c2oc3nc(-c4ccccc4)cc(-c4ccco4)c3c2N)c1        inactive
11  NC(=O)c1nsc(C(=O)N(Cc2ccco2)C(C(=O)NCc2ccccc2)c2ccc(O)cc2)c1N (configuration not stated)        inactive
12  CC(=O)c1ccc(-c2cnc3c(NC=O)cc(-c4ccc(C(=O)NC5CC5)cc4)cn23)cc1        inactive
13  COc1cc(-c2cc(NC(C)=O)c3ncc(-c4cc(OC)c(OC)c(OC)c4)n3c2)cc(OC)c1OC          active
14  CCOC(=O)C1CCN(c2cc3c(cc2NC(=O)c2ccccc2)n(C)c(=O)n3C)CC1        inactive
15  NC(=O)c1nsc(C(=O)N(c2ccccc2F)C(C(=O)NCc2ccc(F)cc2)c2ccc(O)cc2)c1N (configuration not stated)        inactive
16  CC(=O)c1ccc(-c2cnc3c(NC=O)cc(-c4cccc(NS(C)(=O)=O)c4)cn23)cc1          active
17  COc1cc(-c2cc(C(=O)Nc3cccc(C(C)=O)c3)c3ccccc3n2)cc(OC)c1OC          active
18   Cc1cc(N)n(-c2nc(-c3cccnc3)nc3ccccc23)n1        inactive
19  COc1ccc(-c2cnc3c(NC=O)cc(-c4cccc(NS(C)(=O)=O)c4)cn23)cc1OC          active
20  COc1cc(OC)cc(C(=O)Nc2ccc(C(=O)Nc3ccccc3OC)cc2)c1        inactive
21  COc1cc(-c2cc3nc(NCCc4ccc(S(N)(=O)=O)cc4)ccn3n2)cc(OC)c1OC          active
22  O=C(c1ccc(-c2nc3ccccc3s2)o1)N1CCN(c2ccccc2O)CC1        inactive
23  CC(C)(C)OC(=O)C[C@@H]1C/C=C\C[C@@H](CC(=O)N[C@@H](CO)Cc2ccccc2)C(=O)NC[C@@H](c2ccccc2)OC1=O        inactive
24  COc1ccc(-c2cc(-c3nnc(COC(=O)C4CC4C)o3)c3ccccc3n2)cc1OC (configuration not stated)          active
25  CC(C)(C)OC(=O)N1CCC(NC(=O)c2nc[nH]c2C(=O)NCC(=O)OCc2ccccc2)CC1        inactive
26  O=[N+]([O-])c1ccc(Nc2nc(N/N=C/c3cccc(F)c3)nc(N3CCCC3)n2)cc1        inactive
27  CCOc1cc(/C=C(\C#N)C(=O)Nc2ccc(S(N)(=O)=O)cc2)ccc1OCCN1CCOCC1        inactive
28  COc1cccc(-c2cnc3c(NC=O)cc(-c4ccc(O)c(OC)c4)cn23)c1        inactive
29  Nc1c(C(=O)N/N=C/c2cccnc2)oc2nc(-c3ccco3)cc(-c3ccco3)c12        inactive
30  COc1cc(-c2cc3nc(NCCOc4ccccc4)ccn3n2)cc(OC)c1OC        inactive
31  Nc1c(C(=O)N/N=C/c2cccnc2)oc2nc(-c3ccccc3)cc(-c3ccco3)c12        inactive
32  Cn1c(=O)c2[nH]c(NN=Cc3ccc(Br)cc3)nc2n(C)c1=O        inactive
33  CCOC(=O)C(Cc1ccc(NC(=O)/C(=C/c2ccc(OC(C)=O)cc2)NC(C)=O)cc1)N1C(=O)c2ccccc2C1=O (configuration not stated)        inactive
34  COc1ccc(-c2csc(NC(=O)c3cccc(N4C(=O)CCC4=O)c3)n2)cc1OC        inactive
35  CCOc1ccc(C(C(=O)NCC2CCCO2)N(C(=O)c2snc(C(N)=O)c2N)c2ccccc2F)cc1 (configuration not stated)          active
36  NC(=O)COc1ccc2oc(=O)cc(-c3cc4ccccc4o3)c2c1          active

###

# System: HL-1 cardiomyocytes, H2O2 injury, ATP luminescence, 2 h
# Protocol: H2O2-induced HL-1 cell death suppression – ATP luminescence, dose response (AID 602215);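 also: potency is for protection so actives raise ATP signal against peroxide damage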
Active and inactive are the calls of the source.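 Rule for the calls: active = IC50 of 20 µM or lower; inactive = the rest.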
Labels: active, inactive

>>> df
                                    molecule  assigned_class
 0  COc1cc(/C=C/c2nnc3c4ccccc4ncn23)cc(OC)c1OC          active
 1  COc1cc(NC(=O)c2ccco2)c(OC)cc1NC(=O)c1cc(OC)c(OC)c(OC)c1        inactive
 2  CC(=O)Nc1cc(-c2ccc(C(=O)NC3CC3)cc2)cn2c(-c3cccc(C(C)=O)c3)cnc12        inactive
 3  CN(C)S(=O)(=O)c1ccc2[nH]cc(/C=C/c3nc4ccccc4c(=O)n3-c3ccccc3)c2c1        inactive
 4  Cc1cc(C)c(C)c(S(=O)(=O)N2CCN(C(=O)c3cc(=O)[nH]c4ccccc34)CC2)c1C          active
 5  COc1ccc(NC(=O)c2cc(-c3ccccn3)nc3ccccc23)cc1S(=O)(=O)N(C)C        inactive
 6   COc1cccc(C(=O)Nc2c(C(N)=O)oc3ccccc23)c1        inactive
 7  Cc1ccc(C)c(NC(=O)C(Sc2nc3ccccc3c(=O)n2CC(C)C)c2ccccc2)c1 (stereo not given)        inactive
 8  CC(C)c1ccccc1NC(=O)COC(=O)c1c2c(nc3ccccc13)CCN(Cc1ccccc1)C2        inactive
 9  CC(=O)c1ccc(-c2ccc(C(=O)Nc3nc(-c4ccccn4)cs3)o2)cc1        inactive
10  COc1ccc(OC)c(/C=N/NC(=O)c2cc3c(OC)c(OC)ccc3[nH]2)c1          active
11  Fc1ccc(-n2cc(-c3ccccc3)c3c(N4CCOCC4)ncnc32)cc1        inactive
12    COc1cc(Nc2nc3ccccc3n3nnnc23)cc(OC)c1OC        inactive
13  CCOc1ccccc1NC(=O)c1oc2ccccc2c1NC(=O)C1CCCO1 (stereo not given)        inactive
14  COc1cccc(Nc2nc(-c3sc(NC(=O)c4ccco4)nc3C)cs2)c1        inactive
15  COC(=O)c1ccc(N)c(N=CC2=C(O)CC(C)(C)CC2=O)c1        inactive
16  COc1ccc(N(CC(=O)Nc2cccc(C(C)=O)c2)S(=O)(=O)c2ccc(NC(C)=O)cc2)cc1        inactive
17  CC(=O)Nc1cc(-c2cccc(NS(C)(=O)=O)c2)cn2c(-c3cccc(C(C)=O)c3)cnc12          active
18  O=C(NCC(=O)N(Cc1cccs1)C(C(=O)NC1CCCCC1)c1ccco1)c1ccco1 (stereo not given)        inactive
19  CCOc1ccccc1Nc1nnc(SCc2nnc(-c3cc(OC)c(OC)c(OC)c3)o2)s1          active
